Quick reference: solubility of the listed items.
Assay: Solubility of compound at pH 1.2 incubated for 4 hrs by HPLC or LC-MS/MS analysis
Format: physicochemical
Conditions: buffer, pH 1.2, 4 h
attribute-measured: solubility

{"smiles-str": "CCc1oc2cccc(I)c2c1C(=O)c1cc(I)c(O)c(I)c1", "obs-value": "< 0.02 µM"}
{"smiles-str": "CCc1oc2cccc(C)c2c1C(=O)c1cc(I)c(O)c(I)c1", "obs-value": "< 0.01 µM"}
{"smiles-str": "CCc1oc2cccc(Br)c2c1C(=O)c1cc(I)c(O)c(I)c1", "obs-value": "0.054 µM"}
{"smiles-str": "CCc1oc2c(Cl)ccc(Cl)c2c1C(=O)c1cc(I)c(O)c(I)c1", "obs-value": "< 0.02 µM"}
{"smiles-str": "CCc1oc2cccc(Cl)c2c1C(=O)c1cc(I)c(O)c(I)c1", "obs-value": "< 0.01 µM"}

###

Assay: Solubility of compound at pH 6.8 incubated for 4 hrs by HPLC or LC-MS/MS analysis
Format: physicochemical
Conditions: buffer, pH 6.8, 4 h
Listed next: entries and their corresponding solubility.
attribute-measured: solubility

{"smiles-str": "CCc1oc2cccc(Cl)c2c1C(=O)c1cc(I)c(O)c(I)c1", "obs-value": "> 100 µM"}
{"smiles-str": "CCc1oc2cccc(Br)c2c1C(=O)c1cc(I)c(O)c(I)c1", "obs-value": "> 100 µM"}
{"smiles-str": "CCc1oc2cccc(C)c2c1C(=O)c1cc(I)c(O)c(I)c1", "obs-value": "> 100 µM"}
{"smiles-str": "CCc1oc2cccc(I)c2c1C(=O)c1cc(I)c(O)c(I)c1", "obs-value": "> 100 µM"}
{"smiles-str": "CCc1oc2c(Cl)ccc(Cl)c2c1C(=O)c1cc(I)c(O)c(I)c1", "obs-value": "89.5 µM"}

###

Test: Oral bioavailability in male Sprague-Dawley rat at 0.1 mg/kg measured upto 8 hrs by LC-MS/MS analysis
Format: ADME, organism-based
Settings: in vivo

{"smiles-str": "O=C(O)c1ccc2nc(-c3cc(Cl)cc(Cl)c3)oc2c1", "unit-name": "%", "bioavailability": 63.5}

###

Parameter C0 at 8 h: see the listing below.
Experiment: C0 in male Sprague-Dawley rat at 0.1 mg/kg, iv measured upto 8 hrs by LC-MS/MS analysis
Conditions: in vivo

{"smiles-str": "CCc1oc2cccc(Cl)c2c1C(=O)c1cc(I)c(O)c(I)c1", "unit-name": "ng/mL", "C0 at 8 h": 1720}
{"smiles-str": "CCc1oc2cccc(C)c2c1C(=O)c1cc(I)c(O)c(I)c1", "unit-name": "ng/mL", "C0 at 8 h": 1640}
{"smiles-str": "O=C(O)c1ccc2nc(-c3cc(Cl)cc(Cl)c3)oc2c1", "unit-name": "ng/mL", "C0 at 8 h": 519}
{"smiles-str": "CCc1oc2cccc(I)c2c1C(=O)c1cc(I)c(O)c(I)c1", "unit-name": "ng/mL", "C0 at 8 h": 1540}
{"smiles-str": "CCc1oc2cccc(Br)c2c1C(=O)c1cc(I)c(O)c(I)c1", "unit-name": "ng/mL", "C0 at 8 h": 1740}
{"smiles-str": "CCc1oc2c(Cl)ccc(Cl)c2c1C(=O)c1cc(I)c(O)c(I)c1", "unit-name": "ng/mL", "C0 at 8 h": 1340}
